# Test system: Pseudomonas aeruginosa ATCC 27853
# measurement description: ≥ marks a high value that may be exact or a test limit, other limits are often not marked, values filed in µg/mL are converted to µM
Quick list: log10 of MIC per entry.
measured attribute: log10 of MIC (log10 of the value in µM)

compound="CC[C@H](C)[C@H](N)C(=O)N[C@@H](CC(C)C)C(=O)NCC(=O)N[C@@H](CCCCN)C(=O)N[C@@H](CC(C)C)C(=O)N[C@@H](CC(C)C)C(=O)N[C@@H](CO)C(=O)N[C@H](C(=O)N[C@@H](C)C(=O)N[C@@H](C)C(=O)NCC(=O)N[C@@H](CC(C)C)C(=O)N[C@@H](CC(C)C)C(=O)N[C@@H](CCCCN)C(=O)N[C@@H](CC(N)=O)C(=O)N[C@@H](CC(C)C)C(N)=O)[C@@H](C)O [ILGKLLSTAAGLLKNL]" measured_on="Pseudomonas aeruginosa ATCC 27853" measured_attribute="log10 of MIC" measured_result=2.11
compound="CC(C)C[C@H](NC(=O)[C@H](Cc1c[nH]c2ccccc12)NC(=O)[C@H](CCCCN)NC(=O)[C@H](CC(C)C)NC(=O)[C@H](CC(C)C)NC(=O)[C@H](CCCCN)NC(=O)[C@H](CCCCN)NC(=O)[C@H](CC(C)C)NC(=O)[C@H](CC(C)C)NC(=O)[C@H](CCCCN)NC(=O)[C@@H](N)CCCCN)C(N)=O [KKLLKKLLKWL]" measured_on="Pseudomonas aeruginosa ATCC 27853" measured_attribute="log10 of MIC" measured_result=0.45
compound="CC[C@H](C)[C@H](NC(=O)[C@H](CCCCN)NC(=O)[C@H](CC(C)C)NC(=O)[C@H](CCCN=C(N)N)NC(=O)[C@H](CC(C)C)NC(=O)[C@H](CCCCN)NC(=O)[C@H](CCCCN)NC(=O)[C@H](CC(C)C)NC(=O)[C@H](CC(C)C)NC(=O)[C@H](CCCCN)NC(=O)[C@H](CCCCN)NC(=O)[C@H](CC(N)=O)NC(=O)[C@H](CCCN=C(N)N)NC(=O)[C@H](C)NC(=O)[C@H](CCSC)NC(=O)[C@@H]1CCCN1)C(=O)N[C@@H](C)C(=O)N[C@@H](Cc1ccccc1)C(=O)N[C@@H](CCCCN)C(=O)O [PMARNKKLLKKLRLKIAFK]" measured_on="Pseudomonas aeruginosa ATCC 27853" measured_attribute="log10 of MIC" measured_result=1.20
compound="CC[C@H](C)[C@H](NC(=O)[C@H](CCCN=C(N)N)NC(=O)[C@H](CCC(N)=O)NC(=O)[C@@H](NC(=O)[C@H](C)NC(=O)[C@H](CCCN=C(N)N)NC(=O)[C@@H](N)CCCCN)C(C)C)C(=O)N[C@@H](CCCCN)C(=O)N[C@@H](CC(=O)O)C(=O)N[C@@H](Cc1ccccc1)C(=O)N[C@@H](CC(C)C)C(=O)N[C@@H](CCCN=C(N)N)C(=O)O [KRAVQRIKDFLR]" measured_on="Pseudomonas aeruginosa ATCC 27853" measured_attribute="log10 of MIC" measured_result=1.00
compound="CSCC[C@H](NC(=O)[C@H](CCCN=C(N)N)NC(=O)[C@H](Cc1c[nH]c2ccccc12)NC(=O)[C@H](C)NC(=O)[C@H](Cc1c[nH]c2ccccc12)NC(=O)[C@H](CCCN=C(N)N)NC(=O)[C@H](CCCN=C(N)N)NC(=O)[C@H](C)NC(=O)[C@H](CCCCN)NC(=O)[C@@H](N)Cc1ccccc1)C(=O)N[C@@H](CCCCN)C(=O)O [FKARRWAWRMK]" measured_on="Pseudomonas aeruginosa ATCC 27853" measured_attribute="log10 of MIC" measured_result=2.11
compound="CC[C@H](C)[C@H](NC(=O)[C@H](CCCCN)NC(=O)[C@H](CCCCN)NC(=O)[C@@H](N)CCC(N)=O)C(=O)N[C@@H](C)C(=O)N[C@H](C(=O)N[C@@H](CCCN=C(N)N)C(=O)N[C@@H](CC(C)C)C(=O)N[C@@H](CO)C(=O)N[C@@H](C)C(=O)O)C(C)C [QKKIAVRLSA]" measured_on="Pseudomonas aeruginosa ATCC 27853" measured_attribute="log10 of MIC" measured_result=0.86
compound="CC[C@H](C)[C@H](NC(=O)CN)C(=O)N[C@@H](Cc1ccccc1)C(=O)N[C@@H](CO)C(=O)N[C@@H](CCCCN)C(=O)N[C@@H](CC(C)C)C(=O)N[C@@H](C)C(=O)NCC(=O)N[C@@H](CCCCN)C(=O)N[C@@H](CCCCN)C(=O)N[C@@H](CC(C)C)C(=O)N[C@@H](CCCCN)C(=O)N[C@@H](CC(N)=O)C(=O)N[C@@H](CC(C)C)C(=O)N[C@@H](CC(C)C)C(=O)N[C@H](C(=O)N[C@@H](CO)C(=O)NCC(N)=O)[C@@H](C)CC [GIFSKLAGKKLKNLLISG]" measured_on="Pseudomonas aeruginosa ATCC 27853" measured_attribute="log10 of MIC" measured_result=0.90
compound="CC(C)C[C@H](NC(=O)CNC(=O)[C@H](C)NC(=O)[C@@H](NC(=O)[C@H](CCCN=C(N)N)NC(=O)[C@H](CCCN=C(N)N)NC(=O)[C@H](CC(C)C)NC(=O)[C@@H](N)CC(C)C)C(C)C)C(=O)N[C@@H](CC(C)C)C(=O)N[C@@H](CCCCN)C(=O)N[C@@H](CCC(N)=O)C(=O)N[C@@H](Cc1ccccc1)C(=O)N[C@@H](C)C(=O)N[C@@H](CCCCN)C(=O)O [LLRRVAGLLKQFAK]" measured_on="Pseudomonas aeruginosa ATCC 27853" measured_attribute="log10 of MIC" measured_result=0.70

Entry source: DBAASP
